Molecular target: T1, extracellular LRR domain of PXY (PXY^LRR, residues 1-647) (Arabidopsis, UniProt Q9FII5 30-647)
T1 sequence: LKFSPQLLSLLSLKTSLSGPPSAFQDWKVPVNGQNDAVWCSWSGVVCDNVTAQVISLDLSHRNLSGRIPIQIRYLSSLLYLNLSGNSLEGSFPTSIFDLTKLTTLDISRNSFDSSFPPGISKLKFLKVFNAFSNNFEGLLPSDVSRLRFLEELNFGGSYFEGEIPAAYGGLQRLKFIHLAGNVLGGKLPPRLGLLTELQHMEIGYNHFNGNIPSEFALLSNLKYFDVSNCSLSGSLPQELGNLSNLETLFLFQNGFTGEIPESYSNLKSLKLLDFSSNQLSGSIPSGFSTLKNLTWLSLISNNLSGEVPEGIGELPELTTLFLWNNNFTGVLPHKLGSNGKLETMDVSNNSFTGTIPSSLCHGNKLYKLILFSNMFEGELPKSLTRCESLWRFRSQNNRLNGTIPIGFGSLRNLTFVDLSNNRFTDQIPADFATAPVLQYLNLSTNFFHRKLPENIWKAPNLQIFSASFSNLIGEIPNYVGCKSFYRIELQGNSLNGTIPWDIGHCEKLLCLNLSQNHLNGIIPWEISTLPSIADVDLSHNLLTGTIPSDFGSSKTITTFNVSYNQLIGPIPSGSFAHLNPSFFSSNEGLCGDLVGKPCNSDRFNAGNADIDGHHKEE
Test: ITC
pKd: −log10 of the molar value.
Value kind: pKd

May I ask what pKd has been recorded for REVPSGPNPISN [synthetic mutant peptide TDIF^H1R] ?
~7.17
